Assignment: determine reported pEC50 for the given compounds.
tested-on: human P-glycoprotein (hPgp) (Homo sapiens, UniProt P08183)
Construct: Caco-2 VB cells, which overexpress hPGP, were generated by growing Caco-2 cells in the presence of 1 μg/mL vinblastine; endogenous in cells
Sequence (P08183 whole entry): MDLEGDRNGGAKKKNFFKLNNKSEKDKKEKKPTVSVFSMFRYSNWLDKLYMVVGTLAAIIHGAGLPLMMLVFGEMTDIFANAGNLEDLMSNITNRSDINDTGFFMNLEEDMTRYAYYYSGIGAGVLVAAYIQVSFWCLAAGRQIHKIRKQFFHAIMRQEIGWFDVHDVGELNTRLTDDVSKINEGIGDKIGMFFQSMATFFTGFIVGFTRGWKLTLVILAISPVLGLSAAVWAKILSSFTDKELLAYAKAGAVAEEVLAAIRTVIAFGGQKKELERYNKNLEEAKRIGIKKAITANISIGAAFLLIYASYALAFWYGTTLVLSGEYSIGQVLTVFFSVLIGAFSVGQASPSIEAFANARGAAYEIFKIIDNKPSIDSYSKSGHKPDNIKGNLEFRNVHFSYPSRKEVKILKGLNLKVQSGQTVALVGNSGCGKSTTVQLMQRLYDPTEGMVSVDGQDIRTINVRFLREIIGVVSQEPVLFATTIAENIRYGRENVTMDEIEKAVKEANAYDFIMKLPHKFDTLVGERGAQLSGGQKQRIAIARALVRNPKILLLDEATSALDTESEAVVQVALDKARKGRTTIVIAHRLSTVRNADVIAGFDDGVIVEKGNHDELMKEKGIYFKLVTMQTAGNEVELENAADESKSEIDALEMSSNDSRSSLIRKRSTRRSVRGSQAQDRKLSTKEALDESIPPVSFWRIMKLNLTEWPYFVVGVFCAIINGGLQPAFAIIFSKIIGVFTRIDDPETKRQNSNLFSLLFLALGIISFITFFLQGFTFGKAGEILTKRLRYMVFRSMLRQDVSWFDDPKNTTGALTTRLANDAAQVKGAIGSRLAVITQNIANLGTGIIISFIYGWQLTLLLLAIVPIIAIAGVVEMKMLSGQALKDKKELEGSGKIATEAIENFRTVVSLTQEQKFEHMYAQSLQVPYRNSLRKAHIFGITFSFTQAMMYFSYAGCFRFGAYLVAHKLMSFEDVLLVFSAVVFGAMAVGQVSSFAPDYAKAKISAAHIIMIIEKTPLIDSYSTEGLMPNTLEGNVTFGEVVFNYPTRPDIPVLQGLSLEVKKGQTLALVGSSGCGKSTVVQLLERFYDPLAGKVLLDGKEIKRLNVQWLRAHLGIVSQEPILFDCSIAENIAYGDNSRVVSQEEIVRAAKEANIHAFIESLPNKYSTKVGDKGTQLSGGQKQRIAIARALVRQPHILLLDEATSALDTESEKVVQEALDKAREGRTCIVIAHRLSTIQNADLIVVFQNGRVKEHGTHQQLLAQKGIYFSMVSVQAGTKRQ
experiment-summary: hPgp-mediated calcein-AM efflux assay in Caco-2 VB cells
condition-info: Caco-2 VB cells, calcein-AM; read-out: inhibition of calcein extrusion, EC50
In plain terms, pEC50 is the concentration in mol/L turned into minus its base-10 logarithm.

What measured pEC50 is associated with CC(=O)C1=C(C)NC(=O)NC1c1cc(Br)cc(Br)c1OCc1cn(-c2ccccc2[N+](=O)[O-])nn1 (stereo not drawn) on human P-glycoprotein (hPgp) (Homo sapiens, UniProt P08183)? 5.47

Again, but for CC(=O)C1=C(C)NC(=O)NC1c1ccc(OCc2cn(-c3cccc(Br)c3)nn2)cc1 (stereo not drawn) 5.03

Another: CC(=O)C1=C(C)NC(=O)NC1c1ccccc1OCc1cn(-c2ccccc2[N+](=O)[O-])nn1 (stereo not drawn) 4.81

Try CC(=O)C1=C(C)NC(=O)NC1c1ccccc1OCc1cn(-c2cccc(Cl)c2)nn1 (stereo not drawn) next. 5.50

Similarly, CC(=O)C1=C(C)NC(=O)NC1c1cc(Br)cc(Br)c1OCc1cn(-c2ccc([N+](=O)[O-])cc2)nn1 (stereo not drawn) ? 5.05

Repeat for the following compound: CC(=O)C1=C(C)NC(=O)NC1c1ccc(OCc2cn(-c3cccc(Cl)c3)nn2)cc1 (stereo not drawn) 5.32

Try the compound COc1ccc(-n2cc(COc3ccc(C4NC(=O)NC(C)=C4C(C)=O)cc3)nn2)c(OC)c1 (stereo not drawn) 5.38

Please do the same for CC(=O)C1=C(C)NC(=O)NC1c1cc(Br)cc(Br)c1OCc1cn(-c2ccccc2)nn1 (stereo not drawn) as well. 5.40

Request: CC(=O)C1=C(C)NC(=O)NC1c1ccccc1OCc1cn(-c2ccccc2)nn1 (stereo not drawn) 4.90

###

metric-name: melting point

What value of melting point has been reported for the following compound? COc1cc(C2NC(=O)NC(C)=C2C(C)=O)ccc1OCc1cn(-c2ccc([N+](=O)[O-])cc2)nn1 (centres unmarked) 159 to 161 °C

Request: CC(=O)C1=C(C)NC(=O)NC1c1cc(Br)cc(Br)c1OCc1cn(-c2ccc([N+](=O)[O-])cc2)nn1 (centres unmarked) 165 to 167 °C

Now consider CC(=O)C1=C(C)NC(=O)NC1c1ccc(OCc2cn(-c3c(Cl)cc(Cl)cc3Cl)nn2)cc1 (centres unmarked) and answer again. 135 to 137 °C

And what about the compound CC(=O)C1=C(C)NC(=O)NC1c1ccccc1OCc1cn(-c2ccccc2)nn1 (centres unmarked) ? 145 to 147 °C

Now consider COc1cc(C2NC(=O)NC(C)=C2C(C)=O)ccc1OCc1cn(-c2ccccc2)nn1 (centres unmarked) and answer again. 151 to 153 °C

Try the compound CC(=O)C1=C(C)NC(=O)NC1c1ccc(OCc2cn(-c3ccc([N+](=O)[O-])cc3)nn2)cc1 (centres unmarked) 134 to 136 °C

Please give the result for CC(=O)C1=C(C)NC(=O)NC1c1ccccc1OCc1cn(-c2ccc([N+](=O)[O-])cc2)nn1 (centres unmarked) too. 148 to 150 °C

Queued: CC(=O)C1=C(C)NC(=O)NC1c1cc(Br)cc(Br)c1OCc1cn(-c2ccccc2)nn1 (centres unmarked) 157 to 159 °C

###

Test system: colorectal adenocarcinoma (Caco-2) cell line
experiment-summary: MTT cytotoxicity assay against Caco-2 cells
Assay type: cell-based
condition-info: Homo sapiens; Caco-2 cell line, MTT assay (Table 1)
metric-name: pIC50
Keep in mind that pIC50 stands for -log10 of concentration in molar terms.

Requested read-out: pIC50. Entry: CC(=O)C1=C(C)NC(=O)NC1c1ccccc1OCc1cn(-c2cccc(Cl)c2)nn1 (centres unmarked) [6ad′] 6.24

For COc1ccc(-n2cc(COc3ccc(C4NC(=O)NC(C)=C4C(C)=O)cc3)nn2)c(OC)c1 (centres unmarked) [6bh′] then? 6.22

Follow-up entry: CC(=O)C1=C(C)NC(=O)NC1c1ccc(OCc2cn(-c3cccc(Cl)c3)nn2)cc1 (centres unmarked) [6bd′] 6.12

COc1cccc2c1C(=O)c1c(O)c3c(c(O)c1C2=O)C[C@@](O)(C(C)=O)C[C@@H]3O[C@H]1C[C@H](N)[C@H](O)[C@H](C)O1 [daunorubicin, reference compound] , same question. 4.85

Now consider CC(=O)C1=C(C)NC(=O)NC1c1ccccc1OCc1cn(-c2ccccc2)nn1 (centres unmarked) [6aa′] and answer again. 5.96

Also, CC(=O)C1=C(C)NC(=O)NC1c1ccc(OCc2cn(-c3cccc(Br)c3)nn2)cc1 (centres unmarked) [6be′] please. 6.10

For CC(=O)C1=C(C)NC(=O)NC1c1cc(Br)cc(Br)c1OCc1cn(-c2ccc([N+](=O)[O-])cc2)nn1 (centres unmarked) [6cc′] then? 5.90

How about CC(=O)C1=C(C)NC(=O)NC1c1ccccc1OCc1cn(-c2ccccc2[N+](=O)[O-])nn1 (centres unmarked) [6ab′] ? 5.89

Similarly, CC(=O)C1=C(C)NC(=O)NC1c1cc(Br)cc(Br)c1OCc1cn(-c2ccccc2)nn1 (centres unmarked) [6ca′] ? 6.05

Likewise for CC(=O)C1=C(C)NC(=O)NC1c1cc(Br)cc(Br)c1OCc1cn(-c2ccccc2[N+](=O)[O-])nn1 (centres unmarked) [6cb′] ? 5.91

Also need Nc1ccn([C@@H]2O[C@H](CO)[C@@H](O)C2(F)F)c(=O)n1 [gemcitabine, reference compound] , thanks. 5.30

###

Would you kindly list melting point for each of these molecules?

Query: melting point; subject: CC(=O)C1=C(C)NC(=O)NC1c1ccccc1OCc1cn(-c2c(Cl)cc(Cl)cc2Cl)nn1 (stereo not drawn) 139 to 141 °C

Try this molecule too: CC(=O)C1=C(C)NC(=O)NC1c1ccc(OCc2cn(-c3ccccc3)nn2)cc1 (stereo not drawn) 133 to 135 °C

Entry to check: CC(=O)C1=C(C)NC(=O)NC1c1cc(Br)cc(Br)c1OCc1cn(-c2ccccc2[N+](=O)[O-])nn1 (stereo not drawn) 167 to 169 °C

Next record, please: COc1ccc(-n2cc(COc3ccc(C4NC(=O)NC(C)=C4C(C)=O)cc3)nn2)c(OC)c1 (stereo not drawn) 140 to 142 °C

Next record, please: CC(=O)C1=C(C)NC(=O)NC1c1ccc(OCc2cn(-c3ccccc3[N+](=O)[O-])nn2)cc1 (stereo not drawn) 157 to 159 °C

Cool, now CC(=O)C1=C(C)NC(=O)NC1c1ccc(OCc2cn(-c3cccc(Cl)c3)nn2)cc1 (stereo not drawn) 142 to 144 °C

Now consider CC(=O)C1=C(C)NC(=O)NC1c1ccccc1OCc1cn(-c2cccc(Cl)c2)nn1 (stereo not drawn) . 130 to 132 °C

Could you do the same for CC(=O)C1=C(C)NC(=O)NC1c1ccccc1OCc1cn(-c2ccccc2[N+](=O)[O-])nn1 (stereo not drawn) , please? 133 to 135 °C

Also CC(=O)C1=C(C)NC(=O)NC1c1ccc(OCc2cn(-c3cccc(Br)c3)nn2)cc1 (stereo not drawn) , if possible. 138 to 140 °C

###

System: colorectal adenocarcinoma (Caco-2) cell line
experiment-summary: MTT cytotoxicity assay against Caco-2 cells
Type: cell-based
condition-info: Caco-2 cell line, MTT assay (Table 1)
metric-name: IC50 (µM)
# value in µM; strip the unit string

Quick one: IC50 of N.N.O=C([O-])C1(C(=O)[O-])CCC1.[Pt+2] [carboplatin, reference compound] ? 7
